# Target system: 5-HT7 (Homo sapiens)
# Construct: purchased Euroscreen/BioSignal Packard Inc
# Sequence (P34969 whole entry): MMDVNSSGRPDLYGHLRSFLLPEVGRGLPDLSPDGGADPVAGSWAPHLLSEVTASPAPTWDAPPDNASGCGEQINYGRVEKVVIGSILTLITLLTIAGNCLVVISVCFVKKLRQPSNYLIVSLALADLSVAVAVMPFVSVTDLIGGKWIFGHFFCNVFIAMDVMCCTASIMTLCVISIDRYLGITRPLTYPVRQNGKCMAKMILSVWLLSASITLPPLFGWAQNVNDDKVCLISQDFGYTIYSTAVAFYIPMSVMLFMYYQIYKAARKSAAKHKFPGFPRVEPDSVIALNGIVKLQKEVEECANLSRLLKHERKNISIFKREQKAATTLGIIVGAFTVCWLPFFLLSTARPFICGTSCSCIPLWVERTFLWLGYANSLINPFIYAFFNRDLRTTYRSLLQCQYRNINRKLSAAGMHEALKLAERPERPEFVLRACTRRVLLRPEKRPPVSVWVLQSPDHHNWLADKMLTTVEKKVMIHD
# Assay procedure: Radioligand binding, 5-HT7 ([3H]LSD)
# Measurement context: read-out: Binding affinity (Inhibition rate % at 10 μM) 5HT7
Record form. Attribute: inhibition at 10 µM. Fill in for each entry.
Answers are plain numbers, in %.

Before answering, review these 3 worked examples.
| Molecule | inhibition at 10 µM (%) |
| --- | --- |
| CNc1ccc(C2(C)C(=O)Nc3cc(Cl)cc(Cl)c3C2=O)cc1 (stereo not drawn) | 9.1 |
| COc1ccc(C2(C)C(=O)Nc3cc(OC)cc(Cl)c3C2=O)cc1 (stereo not drawn) | 22.4 |
| CN(C)c1ccc(C2(C)C(=O)Nc3cc(Cl)cc(Cl)c3C2=O)cc1 (stereo not drawn) | 30.3 |

Hi there! I need inhibition at 10 µM for each item below, if you can.
1. CC1(c2ccc(O)c(O)c2)C(=O)Nc2ccccc2C1=O (stereo not drawn)
2. CCN(CC)c1ccc(C2(C)C(=O)Nc3cc(Cl)cc(Cl)c3C2=O)cc1 (stereo not drawn)
3. COc1ccc(C2(C)C(=O)Nc3cc(N4CCN(C)CC4)cc(Cl)c3C2=O)cc1 (stereo not drawn)
4. CC1(c2ccc(O)c(Br)c2)C(=O)Nc2cc(Cl)cc(Cl)c2C1=O (stereo not drawn)
5. COc1cc(Cl)c2c(c1)NC(=O)C(C)(c1ccc(Br)cc1)C2=O (stereo not drawn)
6. CC1(c2ccc([N+](=O)[O-])cc2)C(=O)Nc2cc(Cl)cc(Cl)c2C1=O (stereo not drawn)
7. CC1(c2ccccc2)C(=O)Nc2cc(Br)cc(Br)c2C1=O (stereo not drawn)

1. 20.1
2. 10.1
3. 17.8
4. 5.5
5. 8.8
6. 10.8
7. 13

Hi there! I need inhibition at 10 µM for each item below, if you can.
1. C[C@H](NC(=O)Oc1ccc(C2(C)C(=O)Nc3cc(Cl)cc(Cl)c3C2=O)cc1)c1ccccc1 (stereo partly drawn)
2. CC1(c2ccc([N+](=O)[O-])cc2)C(=O)Nc2cc(Cl)c(Cl)cc2C1=O (stereo not drawn)
3. CC1(c2ccc(Br)cc2)C(=O)Nc2cc(Cl)cc(Cl)c2C1=O (stereo not drawn)
4. COc1cc(Cl)cc2c1C(=O)C(C)(c1ccccc1)C(=O)N2 (stereo not drawn)
5. CC1(c2ccc(Br)cc2Br)C(=O)Nc2cc(Cl)ccc2C1=O (stereo not drawn)
6. COc1ccc(C2(C)C(=O)Nc3cc(Cl)cc(Cl)c3C2=O)cc1 (stereo not drawn)
7. CC1(c2ccc(OCc3ccccc3)c(Br)c2)C(=O)Nc2cc(Cl)cc(Cl)c2C1=O (stereo not drawn)
8. COc1cc2c(c(OC)c1)C(=O)C(C)(c1ccccc1)C(=O)N2 (stereo not drawn)

1: 30.6; 2: 16.5; 3: 7.8; 4: 19.5; 5: 29.5; 6: 23.1; 7: 27.4; 8: 23.3

###

# Target system: 5-HT2a (Homo sapiens, UniProt P28223)
# Construct: purchased Euroscreen/BioSignal Packard Inc
# Sequence (P28223 whole entry): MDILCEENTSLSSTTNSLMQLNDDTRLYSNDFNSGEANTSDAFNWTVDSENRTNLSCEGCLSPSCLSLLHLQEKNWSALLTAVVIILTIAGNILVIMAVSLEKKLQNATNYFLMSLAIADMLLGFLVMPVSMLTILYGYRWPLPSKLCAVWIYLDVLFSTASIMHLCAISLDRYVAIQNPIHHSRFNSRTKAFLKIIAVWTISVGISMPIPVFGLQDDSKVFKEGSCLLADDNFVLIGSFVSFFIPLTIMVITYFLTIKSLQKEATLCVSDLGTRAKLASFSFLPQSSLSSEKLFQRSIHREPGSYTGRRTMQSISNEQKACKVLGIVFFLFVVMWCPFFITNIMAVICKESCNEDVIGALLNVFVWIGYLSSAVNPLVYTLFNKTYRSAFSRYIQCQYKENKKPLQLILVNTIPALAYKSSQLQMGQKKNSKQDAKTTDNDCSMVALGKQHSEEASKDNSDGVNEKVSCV
# Assay procedure: Radioligand binding, 5-HT2a ([3H]Ketanserin)
# Measurement context: read-out: Binding affinity (Inhibition rate % at 10 μM) 5HT2a
Quantity measured: inhibition at 10 µM (%)
One number for each entry, in %.

Hi there! I need inhibition at 10 µM for each item below, if you can.
1. COc1cc(Cl)c2c(c1)NC(=O)C(C)(c1ccccc1)C2=O (centres unmarked)
2. COc1cc(Br)c2c(c1)NC(=O)C(C)(c1ccccc1)C2=O (centres unmarked)
3. CC1(c2ccc(Br)cc2Br)C(=O)Nc2cc(Cl)cc(Cl)c2C1=O (centres unmarked)
4. COc1cc(Cl)cc2c1C(=O)C(C)(c1ccccc1)C(=O)N2 (centres unmarked)

[26.8, 25.4, 30.8, 10.6]

Give the observed inhibition at 10 µM of COc1cc(C2(C)C(=O)Nc3ccccc3C2=O)ccc1O (centres unmarked) for 5-HT2a (Homo sapiens, UniProt P28223).
43.5

###

# Target system: human serotonin 5-HT6 receptor (Homo sapiens)
# Construct: made in house; host or cells: Sf21 insect cells (pBacPAK8 baculovirus vector)
# Sequence (P50406 whole entry): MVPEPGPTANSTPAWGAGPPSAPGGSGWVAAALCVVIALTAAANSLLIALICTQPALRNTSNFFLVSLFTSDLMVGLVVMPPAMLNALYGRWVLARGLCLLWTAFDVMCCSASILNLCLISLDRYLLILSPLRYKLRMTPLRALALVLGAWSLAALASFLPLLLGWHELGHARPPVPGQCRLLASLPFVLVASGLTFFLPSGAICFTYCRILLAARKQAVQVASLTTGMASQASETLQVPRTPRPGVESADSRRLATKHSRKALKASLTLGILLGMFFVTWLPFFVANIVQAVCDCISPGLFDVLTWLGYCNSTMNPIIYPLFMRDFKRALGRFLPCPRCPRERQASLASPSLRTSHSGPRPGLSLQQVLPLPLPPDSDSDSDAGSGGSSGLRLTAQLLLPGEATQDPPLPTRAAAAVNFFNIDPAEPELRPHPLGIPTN
# Assay procedure: [3H]LSD binding at cloned 5-HT6 receptors
# Measurement context: read-out: Binding affinity (Inhibition rate % at 10 μM) 5HT6
Record form. Attribute: inhibition at 10 µM. Fill in for each entry.
Numbers only, in %.

Before answering, review these 5 worked examples.
| Compound | Unit of measure | Meas value |
| --- | --- | --- |
| CN1CCN(c2ccc3c(c2)NC(=O)C(C)(c2ccc(N)cc2)C3=O)CC1 (stereo not drawn) [Example 50] | % | 74.5 |
| CCN(CC)c1ccc(C2(C)C(=O)Nc3cc(Cl)cc(Cl)c3C2=O)cc1 (stereo not drawn) [Example 42] | % | 69.5 |
| COc1ccc(C2(C)C(=O)Nc3cc(Cl)cc(Cl)c3C2=O)cc1 (stereo not drawn) [Example 12] | % | 73.3 |
| COc1ccc(C2(C)C(=O)Nc3cc(N4CCN(C)CC4)cc(Cl)c3C2=O)cc1 (stereo not drawn) [Example 46] | % | 67.1 |
| CN(C)c1ccc(C2(C)C(=O)Nc3cc(Cl)cc(Cl)c3C2=O)cc1 (stereo not drawn) [Example 40] | % | 67.2 |

Hi there! I need inhibition at 10 µM for each item below, if you can.
1. CC1(c2ccc(Br)cc2)C(=O)Nc2cc(Cl)cc(Cl)c2C1=O (stereo not drawn) [Example 18]
2. CC1(c2ccc(O)cc2)C(=O)Nc2cc(Cl)cc(Cl)c2C1=O (stereo not drawn) [Example 13]
3. CC1(c2ccc(Cl)cc2)C(=O)Nc2cc(Cl)cc(Cl)c2C1=O (stereo not drawn) [Example 17]

1. 73.8
2. 89.5
3. 69.8

Hi there! I need inhibition at 10 µM for each item below, if you can.
1. CN1CCN(c2cc(Cl)c3c(c2)NC(=O)C(C)(c2ccc([N+](=O)[O-])cc2)C3=O)CC1 (stereo not drawn) [Example 49]
2. COc1ccc(C2(C)C(=O)Nc3c(Br)cc(Br)cc3C2=O)cc1N (stereo not drawn) [Example 29]
3. CC1(c2ccc(N)cc2)C(=O)Nc2cc(Cl)cc(Cl)c2C1=O (stereo not drawn) [Example 15]
4. CC1(c2ccc(O)c([N+](=O)[O-])c2)C(=O)Nc2cc(Cl)cc(Cl)c2C1=O (stereo not drawn) [Example 22]

70.2
68.5
73
72.5

###

# Target system: D1 (Homo sapiens, UniProt P21728)
# Sequence (P21728 whole entry): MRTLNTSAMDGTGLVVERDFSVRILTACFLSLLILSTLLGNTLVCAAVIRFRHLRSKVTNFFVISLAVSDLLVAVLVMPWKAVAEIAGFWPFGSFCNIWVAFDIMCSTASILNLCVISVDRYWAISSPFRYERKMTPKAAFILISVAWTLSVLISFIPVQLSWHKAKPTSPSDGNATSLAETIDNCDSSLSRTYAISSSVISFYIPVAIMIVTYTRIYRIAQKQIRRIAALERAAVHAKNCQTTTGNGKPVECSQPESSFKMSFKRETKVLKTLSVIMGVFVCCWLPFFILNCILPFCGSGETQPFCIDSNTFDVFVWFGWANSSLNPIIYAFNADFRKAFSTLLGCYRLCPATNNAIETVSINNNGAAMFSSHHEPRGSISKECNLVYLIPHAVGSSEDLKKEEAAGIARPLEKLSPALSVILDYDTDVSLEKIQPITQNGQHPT
# Assay procedure: Radioligand binding for selectivity, D1
# Measurement context: read-out: Binding affinity (Inhibition rate % at 10 μM) D1
Quantity measured: inhibition at 10 µM (%)
One number for each entry, in %.

Hi there! I need inhibition at 10 µM for each item below, if you can.
1. CNc1ccc(C2(C)C(=O)Nc3cc(Cl)cc(Cl)c3C2=O)cc1 (centres unmarked)
2. C[C@H](NC(=O)Oc1ccc(C2(C)C(=O)Nc3cc(Cl)cc(Cl)c3C2=O)cc1)c1ccccc1 (some centres unmarked)
3. COc1cc(Cl)c2c(c1)NC(=O)C(C)(c1ccccc1)C2=O (centres unmarked)
4. CCN(CC)c1ccc(C2(C)C(=O)Nc3cc(Cl)cc(Cl)c3C2=O)cc1 (centres unmarked)
5. COc1ccc(C2(C)C(=O)Nc3c(Br)cc(Br)cc3C2=O)cc1[N+](=O)[O-] (centres unmarked)
6. CC1(c2ccc(Br)cc2Br)C(=O)Nc2cc(Cl)ccc2C1=O (centres unmarked)
7. CC1(c2ccccc2)C(=O)Nc2cc(Br)cc(Br)c2C1=O (centres unmarked)

1: 38.5; 2: 54.1; 3: 10.3; 4: 38.7; 5: 46.9; 6: 42.3; 7: 23.7

Hi there! I need inhibition at 10 µM for each item below, if you can.
1. COc1ccc(C2(C)C(=O)Nc3ccccc3C2=O)cc1 (centres unmarked)
2. C[C@H](NC(=O)Nc1cccc([C@]2(C)C(=O)Nc3cc(Cl)cc(Cl)c3C2=O)c1)c1ccccc1
3. CC1(c2cccc(OCc3ccccc3)c2)C(=O)Nc2cc(Cl)cc(Cl)c2C1=O (centres unmarked)
4. COc1ccc(C2(C)C(=O)Nc3cc(OC)cc(Cl)c3C2=O)cc1 (centres unmarked)
5. COc1cc(C2(C)C(=O)Nc3ccccc3C2=O)ccc1O (centres unmarked)
6. CC1(c2ccc(O)c(O)c2)C(=O)Nc2ccccc2C1=O (centres unmarked)
7. COc1ccc(C2(C)C(=O)Nc3c(Br)cc(Br)cc3C2=O)cc1N (centres unmarked)

1. 29.5
2. 35
3. 92.6
4. 43.1
5. 37.1
6. 39
7. 23.6

###

# Target system: hD3 receptor (Homo sapiens)
# Construct: purchased BioSignal Packard Inc., Montreal, Canada
# Sequence (P35462 whole entry): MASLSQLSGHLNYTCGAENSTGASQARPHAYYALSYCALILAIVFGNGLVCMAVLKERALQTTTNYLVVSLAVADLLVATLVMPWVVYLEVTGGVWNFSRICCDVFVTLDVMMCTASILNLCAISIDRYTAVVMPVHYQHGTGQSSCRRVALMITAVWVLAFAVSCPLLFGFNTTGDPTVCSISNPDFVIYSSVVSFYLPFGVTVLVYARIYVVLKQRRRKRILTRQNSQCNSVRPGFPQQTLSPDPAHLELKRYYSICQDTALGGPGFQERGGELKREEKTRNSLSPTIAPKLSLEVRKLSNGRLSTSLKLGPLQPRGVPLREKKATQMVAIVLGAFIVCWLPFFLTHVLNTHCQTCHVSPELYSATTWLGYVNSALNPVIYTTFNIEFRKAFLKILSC
# Assay procedure: Radioligand binding, dopamine D3 ([3H]spiperone)
# Measurement context: read-out: Binding affinity (Inhibition rate % at 10 μM) D3
Quantity measured: inhibition at 10 µM (%)
Numbers only, in %.

Hi there! I need inhibition at 10 µM for each item below, if you can.
1. CC1(c2ccccc2)C(=O)Nc2cc(Cl)ccc2C1=O (stereo not shown) [Example 3]
2. COc1ccc(C2(C)C(=O)Nc3c(Br)cc(Br)cc3C2=O)cc1[N+](=O)[O-] (stereo not shown) [Example 28]
3. CNc1ccc(C2(C)C(=O)Nc3cc(Cl)cc(Cl)c3C2=O)cc1 (stereo not shown) [Example 39]
4. COc1cc2c(c(OC)c1)C(=O)C(C)(c1ccccc1)C(=O)N2 (stereo not shown) [Example 8]

1. 10.9
2. 40.9
3. 8.4
4. 4.6

The values you see were collected from patent US7592457B2.
